System: DLD-1 colon
Assay: NCI tumour cell line growth inhibition, 48 h
Endpoint Name: TGI

Some entries whose results are on file:
# Compound, TGI
rows = [
    ("CCCC(=O)c1c(NOC2OCC(OC(C)=O)C(OC(C)=O)C2OC(C)=O)nc(OC)n(C)c1=O (stereo unspecified)", "> 100 µM"),
    ("CCc1cccc(C)c1NC(=O)CC(=O)NNC(N)=S", "> 100 µM"),
    ("O=C1c2cccc(O)c2C(=O)c2cccc(O)c21", "> 100 µM"),
    ("Cc1ccccc1N(CC(=O)O)S(=O)(=O)c1ccccc1", "> 100 µM"),
    ("Cc1ccc(NC(=O)SCCC(=O)O)cc1", "> 100 µM"),
]

What value of TGI has been recorded for this entry: COc1nc(NC2OCC(OC(C)=O)C(OC(C)=O)C2OC(C)=O)c(-c2csc(N)n2)c(=O)n1C (stereo unspecified)
> 100 µM

Look up TGI for this compound: "Cc1cc([N+](=O)[O-])ccc1Sc1c2ccccc2nc2ccccc12"
> 100 µM

Name the reported TGI value associated with the compound "Nc1ccc(S(=O)(=O)Nc2cnc3ccccc3n2)cc1"
> 100 µM
